Tested on: SEM cells
Assay: cell viability relative to DMSO control; higher = less cytotoxic
Settings: HPLM + 10% dialyzed FBS; 48 h; 0.00702 µM
measured property: cell viability (%)
Give bare numbers, in %.

Examples with their reported cell viability follow.
q: If you can, please state the reported cell viability value of `CC(C)N(C[C@H]1O[C@@H](n2cnc3c(N)ncnc32)[C@H](O)[C@@H]1O)[C@H]1C[C@@H](CCc2nc3cc(C(C)(C)C)ccc3[nH]2)C1` .
a: 101

q: If you can, please state the reported cell viability value of CCC(C)N1\N=C/N(C1=O)C2=CC=C(C=C2)N3CCN(CC3)C4=CC=C(OC[C@H]5CO[C@@](C[N]6C=NC=N6)(O5)C7=CC=C(Cl)C=C7Cl)C=C4 (stereo not given in full) .
a: 119

q: If you can, please state the reported cell viability value of `O=C1NCCc2[nH]c(-c3ccncc3)cc21` .
a: 119

q: If you can, please state the reported cell viability value of `COc1cccc2c1C(=O)c1c(O)c3c(c(O)c1C2=O)C[C@@](O)(C(=O)CO)C[C@@H]3O[C@H]1C[C@H](N)[C@H](O[C@H]2CCCCO2)[C@H](C)O1` .
a: 111

Here is another compound to look at.
q: If you can, please state the reported cell viability value of `CCOc1cc2ncc(C#N)c(Nc3ccc(OCc4ccccn4)c(Cl)c3)c2cc1NC(=O)/C=C/CN(C)C` .
a: 126
